Please respond with reported melting point for every item in the list.

Some compounds with known melting point results, for comparison:
compound | melting point
CC(C)C(=O)C(C)(C)SN(C)C(=O)ON=C1SC(C)(C)C(=O)N1C | 112 to 114 °C
CC(=O)Oc1c(N2CCCC2)c(=O)n(-c2ccccc2)c2ncccc12 | 197 to 200 °C

Field: next compound
Req: Look at this compound and give its reported melting point. Cc1cc(OC(C)c2ccccc2)ccc1C(C)N(O)C(N)=O (stereo not drawn)
Resp: 157 to 158 °C

----------
reported-metric: melting point

Some molecules with known melting point results, for comparison:
molecule | result-value
CCc1cc(Cl)c(C)c(Oc2c(C)cc(C)cc2C)n1 | 42 to 44 °C
N#Cc1nn(-c2c([N+](=O)[O-])cc(C(F)(F)F)cc2[N+](=O)[O-])c(N)c1SC(F)(F)F | 214 °C
Clc1ccc(-c2cccnc2)cn1 | 113 to 115 °C
CN(C)c1ncc(C(=O)NCc2ccccc2)c(S)n1 | 175 to 178 °C
Nc1nc(SC(c2ccccc2)c2ccccc2)c2[nH]cnc2n1 | 226 to 227 °C
CC(O)c1ccnc(C(=O)c2[nH]c3cc(Cl)ccc3c2CC(=O)O)c1 (stereo unspecified) | 193 to 194 °C

Please report melting point for every entry that follows.
1. N#Cc1ccnc(Nc2ccc(-n3nc(C(F)(F)F)cc3C(F)(F)F)cc2)c1
2. CC(=Cc1cc(-n2[nH]c3c(c2=O)CCCC3)ccc1Cl)C(=O)O
3. CCSN(C)C(=O)Nc1ccc(Cl)c(Cl)c1
4. CN1CCC(c2cccc(F)c2)(C(C)(C)O)CC1
5. CCCCCCCCCCC(O)Cn1ccnc1-c1ccccn1 (stereo unspecified)
6. COC(=O)Cc1ccc(-c2nc3ccccc3o2)cc1
7. O=C(c1cc(C(F)(F)F)cc(C(F)(F)F)c1)N1CCC2(CC1)C(=O)N(c1cc(Cl)ncn1)CN2c1ccccc1

Resp:
1. 152 to 153 °C
2. 278 °C
3. 71 °C
4. 158 to 159 °C
5. 62 to 65 °C
6. 109 to 112 °C
7. 212 to 214 °C

The measurements presented in this section are drawn from a melting point compilation (Tetko et al.; mined from patent text by program, amines drawn as free bases though some values may be those of a salt).
